target: hDNMT1 BAH1 domain Y775A (human, UniProt P26358 728-900, Y775A); assay: ITC
Sequence (P26358 728-900 Y775A): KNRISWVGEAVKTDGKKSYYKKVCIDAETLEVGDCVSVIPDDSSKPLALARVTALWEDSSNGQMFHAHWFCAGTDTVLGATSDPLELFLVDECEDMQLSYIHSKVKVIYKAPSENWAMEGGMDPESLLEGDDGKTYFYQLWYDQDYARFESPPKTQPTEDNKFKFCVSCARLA
PARAMETER_MEASURED: pKd
Note: pKd values are expressed as the negative base-10 logarithm of concentration in M.

Request: Please look up its pKd: GAKRHRKVLRDNY (trimethyl-lysine at K20) [H4(14–25)K20me3 peptide]
Response: 3.44

Reference source: paper PMC8093215
